Assay: Solubility test
Assay type: physicochemical
Details: oil or lipid, thermodynamic from solid; Methylphenyl polysiloxane (Silicon FZ209); 0.1 g compound + 1 mL solvent, heated at 40°C for 10 min., returned to room temperature, visual observation
reported_endpoint: solubility at 10 min

Enquiry: Which solubility at 10 min is listed for CCOC(C)CCc1ccc(O)cc1 (centres unmarked) ?
Return: > 100 mg/mL

// next entry
Enquiry: Which solubility at 10 min is listed for CC(O)CCc1ccc(O)cc1 (centres unmarked) [4-(3-Hydroxybutyl)phenol, 4-(3-hydroxybutyl)phenol, reference compound] ?
Return: < 100 mg/mL
